- Test system: cancer-associated phosphoprotein
- condition-context: 160 micromoles/kg; intraperitoneal; plasma ~21 days after exposure; control subtracted
quantity-name: RNA-releasing Activity

| compound | RNA-releasing Activity |
| --- | --- |
| c1ccc2c(c1)Cc1ccccc1-2 | 0.14 percent nuclear counts per min |
| Cc1c(F)ccc2ccc3cc4ccccc4c(C)c3c12 [2-Fluoro-1,12-dimethylbenz[a]anthracene] | 0.10 percent nuclear counts per min |
| Cc1ccc2cc3c(ccc4ccccc43)c3c2c1CC3 | 5.62 percent nuclear counts per min |
| c1ccc2cc3c(ccc4ccccc43)cc2c1 [Benz[a]anthracene] | 4.92 percent nuclear counts per min |
| Cc1c2ccccc2c(C)c2c1ccc1ccccc12 [7,12-Dimethylbenz[a]anthracene] | 6.42 percent nuclear counts per min |
| c1cc2ccc3cccc4ccc(c1)c2c34 | 0.05 percent nuclear counts per min |

Now let's try a different one.
Quick one: RNA-releasing Activity for c1ccc2cc3ccccc3cc2c1 ?
0.17 percent nuclear counts per min

Source: patent US4871661A
